system: JEG-3; assay: Primary qHTS to identify gynecologic anti-cancer compounds using libraries of approved drugs and bioactive compounds (AID 1345084); settings: Gynecologic cancer cell panel viability, ATPlite luminescence, 48 h; series mostly up to 57.5 µM; further: nearly all actives have a fitted effect of over 55% in size
Records with an inconclusive call do not appear. Activity calls are given as the source filed them. The call rests on the fitted dose curve; in most records, active means well fitted cell-killing curve with a large enough effect; inconclusive means small, poorly fitted or top-dose-only effect, or effect the other way; inactive means flat fitted curve, though single readings scatter.
// allowed return values: active, inactive

[
  {
    "molecule": "Cc1[nH]c(/C=C2\\C(=O)Nc3ccc(F)cc32)c(C)c1C(=O)NC[C@H](O)CN1CCOCC1",
    "assigned.class": "inactive"
  },
  {
    "molecule": "CC1(C)SC2C(NC(=O)[C@H](NC(=O)N3CCNC3=O)c3ccccc3)C(=O)N2C1C(=O)O (stereo not given in full)",
    "assigned.class": "inactive"
  },
  {
    "molecule": "CCCCc1nc(C)c(CC(=S)N(C)C)c(=O)n1Cc1ccc(-c2ccccc2-c2nn[nH]n2)cc1",
    "assigned.class": "inactive"
  },
  {
    "molecule": "COc1cc(O)ccc1OCCNCC(O)COc1cccc2[nH]c3ccccc3c12 (stereo not given)",
    "assigned.class": "inactive"
  },
  {
    "molecule": "COc1ccc(Cl)cc1[C@@]1(F)C(=O)Nc2cc(C(F)(F)F)ccc21",
    "assigned.class": "inactive"
  }
]

Qu. GET /call?item= FC(F)(F)c1ccc(CNc2ccc(Cc3c[nH]c4ncccc34)cn2)cc1 returns the recorded outcome of this test.
Ans. inactive

Qu. GET /call?item= COc1ccc(NC(=O)N2CCc3c2ccc2ccccc32)cc1N1CCN(C)CC1 returns the recorded outcome of this test.
Ans. inactive

Qu. GET /call?item= COc1cc2ncnc(Nc3ccc(Oc4ccccc4)cc3)c2cc1OC returns the recorded outcome of this test.
Ans. inactive

Qu. GET /call?item= COc1cccc(CNC(=O)Nc2nc(-c3ccncc3)cs2)c1 returns the recorded outcome of this test.
Ans. inactive

Qu. GET /call?item= O=C(Nc1cccc(C(F)(F)F)c1)c1ccccc1NCc1ccncc1 returns the recorded outcome of this test.
Ans. inactive

Qu. GET /call?item= CN(C)C(=O)c1cc2cnc(Nc3ccc(N4CCNCC4)cn3)nc2n1C1CCCC1 returns the recorded outcome of this test.
Ans. inactive

Qu. GET /call?item= COc1ccc(CNC(=O)Nc2ncc([N+](=O)[O-])s2)cc1 returns the recorded outcome of this test.
Ans. inactive

Qu. GET /call?item= CC1(C)CC23[C@@H]4CC(=O)[C@@H]2COC(=O)[C@@H]3CC[C@H]41 returns the recorded outcome of this test.
Ans. inactive

Qu. GET /call?item= Cc1nnsc1C(=O)Nc1ccc(-n2nc(C(F)(F)F)cc2C(F)(F)F)cc1 returns the recorded outcome of this test.
Ans. inactive

Qu. GET /call?item= CC[C@]1(O)C[C@H]2CN(CCC3C(=Nc4ccccc43)[C@@](C(=O)OC)(c3cc4c(cc3OC)N(C)[C@H]3[C@@](O)(C(N)=O)[C@H](O)[C@]5(CC)C=CCN6CC[C@]43[C@@H]65)C2)C1 (stereo not given in full) returns the recorded outcome of this test.
Ans. active

* * *

test system: SKOV3; assay: Primary qHTS to identify gynecologic anti-cancer compounds using libraries of approved drugs and bioactive compounds (AID 1345084); details: Gynecologic cancer cell panel viability, ATPlite luminescence, 48 h; series mostly up to 57.5 µM; further: nearly all actives have a fitted effect of over 55% in size
Results filed as inconclusive are left out. Activity calls are given as the source filed them. The call rests on the fitted dose curve; in most records, active means well fitted cell-killing curve with a large enough effect; inconclusive means small, poorly fitted or top-dose-only effect, or effect the other way; inactive means flat fitted curve, though single readings scatter.
// allowed return values: active, inactive

Some entries whose results are on file:
[
  {
    "compound": "CCN1CCN(Cc2ccc(-c3cc4c(NC(C)c5ccccc5)ncnc4[nH]3)cc2)CC1 (stereo not drawn)",
    "assigned.class": "active"
  },
  {
    "compound": "COc1c(N2CC3CCCNC3C2)c(F)cc2c(=O)c(C(=O)O)cn(C3CC3)c12 (stereo not drawn)",
    "assigned.class": "inactive"
  }
]

Next up:
Qu. GET /call?item= COc1cc2ncnc(Oc3cccc(NC(=O)Nc4cc(C(C)(C)C(F)(F)F)on4)c3)c2cc1OC returns the recorded outcome of this test.
Ans. inactive
